# Protocol Details: 28-day repeat oral dose toxicity study, toxicokinetics
# Type: in vivo, Beagle dogs
# Study Conditions: male, Beagle, dog, plasma, po, 62.5 mg/kg, KH176 62.5 mg/kg/dose BID oral, M, Day 1, plasma, read-out: AUC0–24 h
Measured Endpoint: AUC(0-t) (ng·h/mL)
# unit: ng·h/mL | format: bare number

stdin: Need AUC(0-t), item Cc1c(C)c2c(c(C)c1O)CC[C@@](C)(C(=O)N[C@@H]1CCCNC1)O2.Cl
stdout: 91500

----------
# Protocol Details: 28-day repeat oral dose toxicity study, toxicokinetics
# Assay type: in vivo, Sprague Dawley rats
# Study Conditions: female, Sprague Dawley, rat, plasma, po, 250 mg/kg, KH176 250 mg/kg/dose BID oral, F, Day 1, plasma, read-out: Cmax
Measured Endpoint: Cmax (ng/mL)
# unit: ng/mL | format: bare number

stdin: Need Cmax, item Cc1c(C)c2c(c(C)c1O)CC[C@@](C)(C(=O)N[C@@H]1CCCNC1)O2.Cl
stdout: 6970

----------
# Protocol Details: Single dose pharmacokinetics and bioavailability study
# Type: in vivo, male C57BL/6 mice
# Study Conditions: male, C57BL/6, iv; mouse, KH176 2 mg/kg i.v., plasma
Measured Endpoint: clearance (mL/min/kg)
# unit: mL/min/kg | format: bare number

stdin: Need clearance, item Cc1c(C)c2c(c(C)c1O)CC[C@@](C)(C(=O)N[C@@H]1CCCNC1)O2.Cl
stdout: 175

----------
# Protocol Details: Single dose pharmacokinetics and bioavailability study
# Type: in vivo, male Sprague Dawley rats
# Study Conditions: male, Sprague Dawley, po; rat, KH176 10 mg/kg p.o., plasma
Measured Endpoint: Cmax (ng/mL)
# unit: ng/mL | format: bare number

stdin: Need Cmax, item Cc1c(C)c2c(c(C)c1O)CC[C@@](C)(C(=O)N[C@@H]1CCCNC1)O2.Cl
stdout: 594

----------
# Protocol Details: 28-day repeat oral dose toxicity study, toxicokinetics
# Format: in vivo, Beagle dogs
# Study Conditions: male, Beagle, dog, plasma, po, 62.5 mg/kg, KH176 62.5 mg/kg/dose BID oral, M, Day 28, plasma, read-out: AUC0–24 h
Measured Endpoint: AUC(0-t) (µg·h/mL)
# unit: µg·h/mL | format: bare number

stdin: Need AUC(0-t), item Cc1c(C)c2c(c(C)c1O)CC[C@@](C)(C(=O)N[C@@H]1CCCNC1)O2.Cl [KH176]
stdout: 102

----------
# System: P4 cell line
# Protocol Details: Redox Stress Survival assay (BSO-induced cell death, Calcein AM viability)
# Format: cell-based, human
# Study Conditions: Homo sapiens; P4 cells, 200 µM BSO, 24 h
# Method: Cells were seeded at a density of 4 × 10^3 cells/well into 96-wells black plates and incubated for 24 h. […] Cell viability was assessed by quantification of cellular conversion of Calcein AM into fluorescent Calcein. […] At the end of the incubation period, the excess of the dye was washed with M199 without phenol red and Calcein fluorescence was measured with a scanning microplate reader (BMG FLUOstar Omega; Ex. 480 nm, Em. 520 nm). […] In all cases, cell viability was assessed 24 h after the treatment.
Measured Endpoint: pEC50
Units for pEC50: none; it is -log10 of a concentration expressed in mol/L.

stdin: Need pEC50, item Cc1c(C)c2c(c(C)c1O)CCC(C)(C(=O)O)O2 (stereo not shown) [Trolox, reference compound]
stdout: 4.42
